Biological target: HiBit-BRG1 fusion protein (Homo sapiens, UniProt P51532)
Construct: expressed in transfected cells
Sequence (P51532 whole entry, the tested form may be a part): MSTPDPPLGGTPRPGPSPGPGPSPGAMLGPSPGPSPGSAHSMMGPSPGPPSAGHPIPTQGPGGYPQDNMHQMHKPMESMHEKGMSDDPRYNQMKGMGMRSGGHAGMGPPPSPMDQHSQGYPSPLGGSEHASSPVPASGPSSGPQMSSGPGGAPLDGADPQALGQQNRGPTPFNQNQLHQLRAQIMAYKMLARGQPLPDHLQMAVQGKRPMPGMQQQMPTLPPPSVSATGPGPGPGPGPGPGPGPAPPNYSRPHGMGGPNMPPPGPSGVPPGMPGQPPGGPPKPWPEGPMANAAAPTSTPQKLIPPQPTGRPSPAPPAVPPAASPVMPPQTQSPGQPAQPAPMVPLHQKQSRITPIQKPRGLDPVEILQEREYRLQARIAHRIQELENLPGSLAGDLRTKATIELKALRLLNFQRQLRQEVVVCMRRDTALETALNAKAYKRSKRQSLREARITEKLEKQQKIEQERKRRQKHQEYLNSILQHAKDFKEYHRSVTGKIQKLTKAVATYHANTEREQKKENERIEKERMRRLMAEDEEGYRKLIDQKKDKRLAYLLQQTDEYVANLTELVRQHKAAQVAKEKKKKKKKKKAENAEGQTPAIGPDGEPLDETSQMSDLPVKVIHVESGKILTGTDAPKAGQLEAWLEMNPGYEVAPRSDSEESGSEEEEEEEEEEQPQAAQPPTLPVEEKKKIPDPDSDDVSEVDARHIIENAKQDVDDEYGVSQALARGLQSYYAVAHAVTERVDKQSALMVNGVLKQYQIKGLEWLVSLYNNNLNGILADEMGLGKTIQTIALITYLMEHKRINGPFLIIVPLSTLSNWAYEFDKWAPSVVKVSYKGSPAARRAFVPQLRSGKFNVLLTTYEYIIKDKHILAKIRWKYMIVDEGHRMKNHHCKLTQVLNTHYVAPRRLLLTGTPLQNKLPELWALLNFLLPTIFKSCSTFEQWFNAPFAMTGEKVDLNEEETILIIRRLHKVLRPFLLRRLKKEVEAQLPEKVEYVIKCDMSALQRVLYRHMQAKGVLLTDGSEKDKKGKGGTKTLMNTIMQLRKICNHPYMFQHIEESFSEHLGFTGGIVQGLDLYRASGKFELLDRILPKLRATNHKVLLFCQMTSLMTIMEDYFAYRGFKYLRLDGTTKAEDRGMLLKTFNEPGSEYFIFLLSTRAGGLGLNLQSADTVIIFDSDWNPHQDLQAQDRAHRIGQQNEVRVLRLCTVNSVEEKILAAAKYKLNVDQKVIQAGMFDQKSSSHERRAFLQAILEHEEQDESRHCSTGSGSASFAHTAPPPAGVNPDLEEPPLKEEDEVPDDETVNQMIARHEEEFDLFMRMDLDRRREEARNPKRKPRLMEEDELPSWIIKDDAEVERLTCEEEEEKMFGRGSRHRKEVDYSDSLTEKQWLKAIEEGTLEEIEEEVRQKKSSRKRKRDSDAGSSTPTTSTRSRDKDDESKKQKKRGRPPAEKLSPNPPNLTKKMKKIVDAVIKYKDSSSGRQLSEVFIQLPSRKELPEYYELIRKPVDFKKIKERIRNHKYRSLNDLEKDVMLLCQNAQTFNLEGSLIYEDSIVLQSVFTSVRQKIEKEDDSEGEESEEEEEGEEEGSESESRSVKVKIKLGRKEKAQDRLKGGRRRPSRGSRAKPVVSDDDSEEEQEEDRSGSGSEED
Test: HiBiT-BRG1 cell-based degradation assay (Nano-Glo HiBiT Lytic Detection, 24 h)
Conditions: HeLa cells expressing HiBit-BRG1 and LgBit, read-out: BRG1 HiBit Degradation IC50
Method: Procedure: A stable HeLa cell line expressing HiBiT-BRM was generated. On day 0, 5000 cells were seeded in 40 μL of media into each well of 384-well cell culture plates. […] The plates were shaken for 10 minutes at room temperature and the bioluminescence read using an EnVision plate reader (PerkinElmer). […] The degradation % was calculated using the following formula: % degradation=100%−100%×(LumSample−LumLC)/(LumHC−LumLC). […]
observable: DC50

- compound: "Cc1ncsc1-c1ccc(CNC(=O)[C@@H]2C[C@@H](O)CN2C(=O)[C@@H](NC(=O)COCCOCCOCCNC(=O)C2(c3cc(-c4cccc(-c5csc(NC(=O)CNC(=O)c6ccn(S(C)(=O)=O)c6)n5)c4)ccn3)CC2)C(C)(C)C)cc1"
  DC50: "0.1 to 1 µM"
- compound: "CS(=O)(=O)n1ccc(C(=O)N[C@@H](CCOCCCC(=O)N2CC(CCOc3cccc4c3C(=O)N(C3CCC(=O)NC3=O)C4=O)C2)C(=O)Nc2nc(-c3ccccc3)cs2)c1 (stereo partly drawn)"
  DC50: "> 10 µM"

Query: I would be grateful if you could share the reported DC50 for Cc1ncsc1-c1ccc(CNC(=O)[C@@H]2C[C@@H](O)CN2C(=O)[C@@H](NC(=O)CCCCC(=O)NCc2ccc(COC[C@H](NC(=O)c3ccn(S(C)(=O)=O)c3)C(=O)Nc3nc(-c4ccccc4)cs3)cc2)C(C)(C)C)cc1 .
Result: > 10 µM

Query: I would be grateful if you could share the reported DC50 for Cc1ncsc1-c1ccc(CNC(=O)[C@@H]2C[C@@H](O)CN2C(=O)[C@@H](NC(=O)CCCCCCC(=O)NCc2ccc(COC[C@H](NC(=O)c3ccn(S(C)(=O)=O)c3)C(=O)Nc3nc(-c4ccccc4)cs3)cc2)C(C)(C)C)cc1 .
Result: > 10 µM

Query: I would be grateful if you could share the reported DC50 for Cc1ncsc1-c1ccc(CNC(=O)[C@@H]2C[C@@H](O)CN2C(=O)[C@@H](NC(=O)CCCCC(=O)NCc2cccc(-c3cccc(-c4csc(NC(=O)CNC(=O)c5ccn(S(C)(=O)=O)c5)n4)c3)c2)C(C)(C)C)cc1 .
Result: 1 to 10 µM

Query: I would be grateful if you could share the reported DC50 for CS(=O)(=O)n1ccc(C(=O)N[C@@H](CCOCCCC(=O)NCCCCCCCCNc2cccc3c2C(=O)N(C2CCC(=O)NC2=O)C3=O)C(=O)Nc2nc(-c3ccccc3)cs2)c1 (stereo partly drawn) .
Result: > 10 µM

Query: I would be grateful if you could share the reported DC50 for CS(=O)(=O)n1ccc(C(=O)N[C@@H](COCc2ccc(C(=O)N3CCN(CCCCCOc4ccc5c(c4)C(=O)N(C4CCC(=O)NC4=O)C5=O)CC3)cc2)C(=O)Nc2nc(-c3ccccc3)cs2)c1 (stereo partly drawn) .
Result: 0.1 to 1 µM

Query: I would be grateful if you could share the reported DC50 for CS(=O)(=O)n1ccc(C(=O)NCC(=O)Nc2nc(-c3cccc(-c4cccc(CNC(=O)CCOCCOCCNc5ccc6c(c5)C(=O)N(C5CCC(=O)NC5=O)C6=O)c4)c3)cs2)c1 (stereo not drawn) .
Result: > 10 µM

Query: I would be grateful if you could share the reported DC50 for CN(CCNC(=O)c1ccc(COCC(NC(=O)c2ccn(S(C)(=O)=O)c2)C(=O)Nc2nc(-c3ccccc3)cs2)cc1)CCNc1cccc2c1C(=O)N(C1CCC(=O)NC1=O)C2=O (stereo not drawn) .
Result: > 10 µM

Query: I would be grateful if you could share the reported DC50 for CS(=O)(=O)n1ccc(C(=O)N[C@@H](CCOCCCC(=O)N2CC(COc3cccc4c3C(=O)N(C3CCC(=O)NC3=O)C4=O)C2)C(=O)Nc2nc(-c3ccccc3)cs2)c1 (stereo partly drawn) .
Result: > 10 µM

Query: I would be grateful if you could share the reported DC50 for CS(=O)(=O)n1ccc(C(=O)NCC(=O)Nc2nc(-c3cccc(-c4ccnc(N5CCN(C(=O)C6CC6CNC(=O)COc6ccc7c(c6)C(=O)N(C6CCC(=O)NC6=O)C7=O)CC5)c4)c3)cs2)c1 (stereo not drawn) .
Result: > 10 µM

Query: I would be grateful if you could share the reported DC50 for CN(CC(=O)NCCCCCNc1ccc2c(c1)C(=O)N(C1CCC(=O)NC1=O)C2=O)c1cc(-c2cccc(-c3csc(NC(=O)CNC(=O)c4ccn(S(C)(=O)=O)c4)n3)c2)ccn1 (stereo not drawn) .
Result: > 10 µM

Query: I would be grateful if you could share the reported DC50 for CS(=O)(=O)n1ccc(C(=O)N[C@@H](CCOCCCC(=O)N2CC(CN3CCN(c4ccc5c(c4)C(=O)N(C4CCC(=O)NC4=O)C5=O)CC3)C2)C(=O)Nc2nc(-c3ccccc3)cs2)c1 (stereo partly drawn) .
Result: > 10 µM

----------
Overview of recorded DC50 for various molecules
biological target: HiBit-BRM fusion protein (Homo sapiens, UniProt P51531); construct: expressed in transfected cells; assay: HiBiT-BRM cell-based degradation assay (Nano-Glo HiBiT Lytic Detection, 24 h); settings: HeLa cells expressing HiBiT-BRM, read-out: BRM HiBit Degradation IC50
Sequence (P51531 whole entry, the tested form may be a part): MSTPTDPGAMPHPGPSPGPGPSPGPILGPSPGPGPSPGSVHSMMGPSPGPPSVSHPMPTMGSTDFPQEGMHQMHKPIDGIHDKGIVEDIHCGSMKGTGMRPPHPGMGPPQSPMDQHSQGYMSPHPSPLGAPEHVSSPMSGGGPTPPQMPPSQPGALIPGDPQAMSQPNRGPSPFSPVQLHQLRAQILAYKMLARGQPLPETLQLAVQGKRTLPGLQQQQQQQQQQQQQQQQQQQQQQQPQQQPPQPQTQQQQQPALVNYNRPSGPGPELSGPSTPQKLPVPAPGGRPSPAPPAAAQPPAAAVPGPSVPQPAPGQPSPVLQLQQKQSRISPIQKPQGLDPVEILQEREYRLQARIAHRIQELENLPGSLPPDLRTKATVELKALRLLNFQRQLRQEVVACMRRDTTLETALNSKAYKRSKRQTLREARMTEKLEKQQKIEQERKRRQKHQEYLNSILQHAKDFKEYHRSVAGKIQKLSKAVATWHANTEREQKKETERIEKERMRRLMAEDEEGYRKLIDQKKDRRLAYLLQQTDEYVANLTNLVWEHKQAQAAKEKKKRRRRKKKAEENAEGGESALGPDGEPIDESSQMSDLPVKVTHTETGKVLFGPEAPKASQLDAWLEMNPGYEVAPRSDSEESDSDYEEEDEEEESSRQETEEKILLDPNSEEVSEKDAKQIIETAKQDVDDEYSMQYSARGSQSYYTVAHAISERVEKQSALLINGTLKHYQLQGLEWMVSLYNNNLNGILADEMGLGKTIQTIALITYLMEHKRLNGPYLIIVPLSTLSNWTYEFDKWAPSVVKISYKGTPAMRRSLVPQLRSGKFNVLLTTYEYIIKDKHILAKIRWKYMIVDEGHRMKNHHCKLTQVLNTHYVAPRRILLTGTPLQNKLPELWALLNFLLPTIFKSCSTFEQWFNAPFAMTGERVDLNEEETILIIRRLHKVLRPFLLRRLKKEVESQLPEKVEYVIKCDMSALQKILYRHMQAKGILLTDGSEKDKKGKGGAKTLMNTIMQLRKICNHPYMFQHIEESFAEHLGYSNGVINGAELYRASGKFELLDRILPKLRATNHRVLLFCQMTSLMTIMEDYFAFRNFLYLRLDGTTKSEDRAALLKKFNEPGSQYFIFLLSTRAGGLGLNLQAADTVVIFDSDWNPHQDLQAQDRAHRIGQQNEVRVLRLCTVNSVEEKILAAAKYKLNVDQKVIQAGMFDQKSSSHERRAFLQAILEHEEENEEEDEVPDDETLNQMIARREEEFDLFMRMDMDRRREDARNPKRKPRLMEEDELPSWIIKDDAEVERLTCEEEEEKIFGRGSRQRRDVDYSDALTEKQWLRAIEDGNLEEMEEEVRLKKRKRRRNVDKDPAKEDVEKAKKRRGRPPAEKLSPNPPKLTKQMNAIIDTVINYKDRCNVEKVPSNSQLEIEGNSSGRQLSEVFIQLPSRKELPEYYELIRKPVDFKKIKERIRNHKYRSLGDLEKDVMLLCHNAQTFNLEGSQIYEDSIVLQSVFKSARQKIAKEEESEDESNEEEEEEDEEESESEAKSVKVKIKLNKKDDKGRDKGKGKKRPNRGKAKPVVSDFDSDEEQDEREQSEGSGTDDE

- molecule: "Cc1c(C(=O)NCC(=O)Nc2nc(-c3cccc(-c4ccnc(N(C)CC(=O)N5CCC(C6CCN(C(=O)COc7cccc8c7C(=O)N(C7CCC(=O)NC7=O)C8=O)CC6)CC5)c4)c3)cs2)cn(S(C)(=O)=O)c1C (centres unmarked)"
  target-under-test: "HiBit-BRM fusion protein (Homo sapiens, UniProt P51531)"
  observed-result: "> 10 µM"

Now for the molecule whose DC50 we want.
Query: I would be grateful if you could share the reported DC50 for Cc1ncsc1-c1ccc(CNC(=O)[C@@H]2C[C@@H](O)CN2C(=O)[C@@H](NC(=O)CCCCC(=O)NCCCC[C@H](NC(=O)c2ccn(S(C)(=O)=O)c2)C(=O)Nc2nc(-c3ccccc3)cs2)C(C)(C)C)cc1 .
Result: > 10 µM

----------
molecular target: HiBit-BRG1 fusion protein (Homo sapiens, UniProt P51532); construct: expressed in transfected cells; assay: HiBiT-BRG1 cell-based degradation assay (Nano-Glo HiBiT Lytic Detection, 24 h); settings: HeLa cells expressing HiBit-BRG1 and LgBit, read-out: BRG1 HiBit Degradation IC50
Overview of recorded DC50 for various molecules

Before answering, review these 2 worked examples.
- molecule: "CS(=O)(=O)n1ccc(C(=O)NCC(=O)Nc2nc(-c3cccc(-c4cccc(CNC(=O)CCCCCCOc5cccc6c5C(=O)N(C5CCC(=O)NC5=O)C6=O)c4)c3)cs2)c1 (stereo not drawn) [Compound 43]"
  DC50: "0.1 to 1 µM"
- molecule: "Cc1ncsc1-c1ccc(CNC(=O)[C@@H]2C[C@@H](O)CN2C(=O)[C@@H](NC(=O)CCCCCCCCC(=O)NCc2cccc(-c3cccc(-c4csc(NC(=O)CNC(=O)c5ccn(S(C)(=O)=O)c5)n4)c3)c2)C(C)(C)C)cc1 [Compound 19]"
  DC50: "0.1 to 1 µM"

Now for the molecule whose DC50 we want.
Query: I would be grateful if you could share the reported DC50 for CN(CCNC(=O)COc1cccc2c1C(=O)N(C1CCC(=O)NC1=O)C2=O)CCNC(=O)c1ccc(COC[C@H](NC(=O)c2ccn(S(C)(=O)=O)c2)C(=O)Nc2nc(-c3ccccc3)cs2)cc1 (stereo partly drawn) [Compound 175] .
Result: > 10 µM

----------
molecular target: HiBit-BRM fusion protein (Homo sapiens); construct: expressed in transfected cells; test: HiBiT-BRM cell-based degradation assay (Nano-Glo HiBiT Lytic Detection, 24 h); details: HeLa cells expressing HiBiT-BRM, read-out: BRM HiBit Degradation IC50
Counter-ions that a name gives are not always drawn.
Overview of recorded DC50 for various compounds

Before answering, review these 2 worked examples.
- compound: "CS(=O)(=O)n1ccc(C(=O)N[C@@H](COCc2ccc(C(=O)NCCNc3ccc4c(c3)C(=O)N(C3CCC(=O)NC3=O)C4=O)cc2)C(=O)Nc2nc(-c3ccccc3)cs2)c1 (stereo partly drawn) [Compound 240]"
  DC50: "> 10 µM"
- compound: "CS(=O)(=O)n1ccc(C(=O)N[C@@H](COCc2ccc(C(=O)N3CCC(CCCCN4CCN(c5ccc6c(c5)C(=O)N(C5CCC(=O)NC5=O)C6=O)CC4)CC3)cc2)C(=O)Nc2nc(-c3ccccc3)cs2)c1 (stereo partly drawn) [Compound 195, formate]"
  DC50: "> 10 µM"

Query: I would be grateful if you could share the reported DC50 for CS(=O)(=O)n1ccc(C(=O)N[C@@H](CCCCNC(=O)CCCCCCOc2cccc3c2C(=O)N(C2CCC(=O)NC2=O)C3=O)C(=O)Nc2nc(-c3ccccc3)cs2)c1 (stereo partly drawn) [Compound 290] .
Result: > 10 µM

Every entry's value here was drawn from patent US12662479B2.
